- System: MtIOMT2
- test.summary: OMT assays with purified recombinant MtIOMT2 (relative activity; HPLC/MS of products)
- Format: biochemical, Medicago truncatula
- details: 50 μM S-adenosyl methionine, 100 μM acceptor substrate; most converted substrate (daidzein) = 100%
- Protocol: Cloning of MtIOMT5 (corresponding to TC 100926, TIGR MtGI v.8) was as described previously (Liu et al., 2005). To obtain a full-length cDNA for MtIOMT2, specific primers designed based upon the M. truncatula genomic sequence were used to amplify the MtIOMT2 coding sequence from M. truncatula root cDNA. […] All MtIOMTs were expressed as translational fusions to an N-terminal His-tag. […] Protein concentration was determined by Bradford assay using BSA as a standard (Bradford, 1976). […]
Relative activity, MtIOMT2 under 40% gets 1.0, anything at or over 40% gets 0.0.

| compound | class.name |
| --- | --- |
| O=c1c(-c2ccc(O)cc2)coc2cc(O)c(O)cc12 [6,7,4′-trihydroxyisoflavone] | 1.0 |
| O=C1c2ccc(O)cc2OCC1c1ccc(O)cc1 (stereo not shown) [Dihydrodaidzein] | 0.0 |
| COc1ccc(-c2coc3cc(O)c(O)cc3c2=O)cc1 [6,7-dihydroxy,4′-methoxyisoflavone] | 1.0 |
| O=c1c(-c2ccc(O)c(O)c2)coc2cc(O)ccc12 [7,3′,4′-trihydroxyisoflavone] | 0.0 |
| O=c1c(-c2ccc(O)cc2)coc2cc(O)cc(O)c12 | 0.0 |
| O=c1c(-c2ccc(O)cc2)coc2cc(O)ccc12 | 0.0 |
| O=c1c(O)c(-c2cc(O)c(O)c(O)c2)oc2cc(O)cc(O)c12 | 1.0 |
| O=c1cc(-c2ccc(O)cc2)oc2cc(O)cc(O)c12 | 1.0 |

###

- Tested on: MtIOMT1
- test.summary: OMT assays with purified recombinant MtIOMT1 (relative activity with 14C-SAM)
- Assay type: biochemical, Medicago truncatula
- details: 50 μM S-adenosyl methionine, 100 μM acceptor substrate; most converted substrate = 100%
quantity.name: Relative activity, MtIOMT1

| compound | measured |
| --- | --- |
| COc1ccc(C2COc3cc(O)ccc3C2)c(O)c1 (centres unmarked) | 0% |
| COc1ccc(-c2coc3cc(O)c(O)cc3c2=O)cc1 [6,7-dihydroxy,4′-methoxyisoflavone] | ≦1% |
| O=c1cc(-c2ccc(O)cc2)oc2cc(O)cc(O)c12 | 0% |
| O=c1c(-c2ccc(O)cc2)coc2cc(O)ccc12 | 20.6% |
| O=c1c(-c2ccc(O)cc2)coc2cc(O)c(O)cc12 [6,7,4′-trihydroxyisoflavone] | 43.9% |

###

- System: MtIOMT6
- test.summary: OMT assays with purified recombinant MtIOMT6 (relative activity; HPLC/MS of products)
- Assay type: biochemical, Medicago truncatula
- details: 50 μM S-adenosyl methionine, 100 μM acceptor substrate; most converted substrate = 100%
- Method: Cloning of MtIOMT5 (corresponding to TC 100926, TIGR MtGI v.8) was as described previously (Liu et al., 2005). To obtain a full-length cDNA for MtIOMT2, specific primers designed based upon the M. truncatula genomic sequence were used to amplify the MtIOMT2 coding sequence from M. truncatula root cDNA. […] All MtIOMTs were expressed as translational fusions to an N-terminal His-tag. […] Protein concentration was determined by Bradford assay using BSA as a standard (Bradford, 1976). […]
Each entry below carries its reported Relative activity, MtIOMT6.

| molecule | Relative activity, MtIOMT6 [%] |
| --- | --- |
| O=c1c(-c2ccc(O)cc2)coc2cc(O)cc(O)c12 | 0 |
| COc1ccc(C2COc3cc(O)ccc3C2)c(O)c1 (stereo not shown) | 66.2 |
| O=c1c(-c2ccc(O)cc2)coc2cc(O)c(O)cc12 [6,7,4′-trihydroxyisoflavone] | 0 |
| O=c1oc2cc(O)ccc2c2oc3cc(O)ccc3c12 | 0 |

Numbers sourced from patent US8809627B2.
